Where do the numbers come from? From patent US9371337B2.

molecular target: AmpC β-lactamase (Escherichia coli, UniProt P00811); construct: made in house; experiment: biochemical; assay type: biochemical; details: Ki vs AmpC, Table 8
Sequence (P00811 20-377): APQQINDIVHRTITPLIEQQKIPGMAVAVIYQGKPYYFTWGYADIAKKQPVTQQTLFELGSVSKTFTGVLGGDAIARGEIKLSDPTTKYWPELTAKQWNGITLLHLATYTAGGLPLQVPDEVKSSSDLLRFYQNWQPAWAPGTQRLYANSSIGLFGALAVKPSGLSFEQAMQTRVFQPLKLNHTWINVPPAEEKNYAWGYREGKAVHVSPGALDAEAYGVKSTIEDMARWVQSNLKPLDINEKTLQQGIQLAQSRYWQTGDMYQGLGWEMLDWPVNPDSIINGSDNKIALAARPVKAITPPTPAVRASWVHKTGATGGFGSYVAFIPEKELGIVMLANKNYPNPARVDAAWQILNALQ
parameterMeasured: pKi
Answers are plain numbers, as −log10 of the molar value.

{"inputSmiles": "N#Cc1ccc(S(=O)(=O)NCB(O)O)cn1", "observed": 6.57}
{"inputSmiles": "N#Cc1ccc(S(=O)(=O)NCB(O)O)cc1", "observed": 6.51}
{"inputSmiles": "O=C(O)c1cccc(CS(=O)(=O)NCB(O)O)c1", "observed": 8.89}

Please state, for each entry, its recorded pKi.
1. O=S(=O)(NCB(O)O)c1ccc(-c2nnn[nH]2)cc1
2. O=S(=O)(NCB(O)O)c1ccc(-c2nn[nH]n2)c(Cl)c1
3. O=S(=O)(NCB(O)O)c1ccc(-c2nn[nH]n2)nc1
4. O=S(=O)(NCB(O)O)c1ccc(-c2nn[nH]n2)cc1Cl
5. CS(=O)(=O)NCB(O)O

Result:
1: 8.92; 2: 8.52; 3: 9.10; 4: 9.70; 5: 6.10
